// reported Receptor downregulation, (pM, EC50) per item
# Test Target: human Siglec-7 on primary human monocyte-derived dendritic cells (human, UniProt Q9Y286 19-467)
# Sequence (Q9Y286 19-467): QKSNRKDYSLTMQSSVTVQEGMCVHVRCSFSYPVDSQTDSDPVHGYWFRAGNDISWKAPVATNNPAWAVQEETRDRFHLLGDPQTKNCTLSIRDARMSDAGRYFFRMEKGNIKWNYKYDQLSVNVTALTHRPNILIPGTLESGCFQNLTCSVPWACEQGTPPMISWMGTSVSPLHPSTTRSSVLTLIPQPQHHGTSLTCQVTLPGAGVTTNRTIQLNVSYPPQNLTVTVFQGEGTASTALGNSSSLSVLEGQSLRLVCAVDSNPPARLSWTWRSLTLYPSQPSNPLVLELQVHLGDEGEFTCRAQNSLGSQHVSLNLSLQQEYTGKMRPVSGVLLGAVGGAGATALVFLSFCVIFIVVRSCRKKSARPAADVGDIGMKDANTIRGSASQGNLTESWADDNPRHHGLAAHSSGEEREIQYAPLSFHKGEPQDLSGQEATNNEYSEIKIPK
# Protocol: cell-based or functional assay
Report the value in pM with no unit label.

Record S7AB-H8.44 huIgG1 N297A (antibody, V domains shown) VH: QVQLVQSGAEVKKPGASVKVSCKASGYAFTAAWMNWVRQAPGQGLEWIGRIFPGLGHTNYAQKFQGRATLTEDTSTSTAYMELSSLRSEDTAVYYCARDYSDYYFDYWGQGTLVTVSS VL: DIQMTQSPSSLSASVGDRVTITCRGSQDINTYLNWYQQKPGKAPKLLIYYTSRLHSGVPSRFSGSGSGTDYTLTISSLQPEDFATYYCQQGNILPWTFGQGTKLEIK . Reported Receptor downregulation, (pM, EC50): 68.6

response.value for S7AB-H8.44 huIgG1 LALAPS (antibody, V domains shown) VH: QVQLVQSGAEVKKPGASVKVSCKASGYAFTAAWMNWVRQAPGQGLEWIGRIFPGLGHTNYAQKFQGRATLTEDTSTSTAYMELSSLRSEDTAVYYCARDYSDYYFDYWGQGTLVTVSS VL: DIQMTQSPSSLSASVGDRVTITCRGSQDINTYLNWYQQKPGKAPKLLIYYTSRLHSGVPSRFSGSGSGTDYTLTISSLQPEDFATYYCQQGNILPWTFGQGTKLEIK (field: Receptor downregulation, (pM, EC50)) = 67.3
